B1: Azoarcus group I ribozyme (parent)
chain: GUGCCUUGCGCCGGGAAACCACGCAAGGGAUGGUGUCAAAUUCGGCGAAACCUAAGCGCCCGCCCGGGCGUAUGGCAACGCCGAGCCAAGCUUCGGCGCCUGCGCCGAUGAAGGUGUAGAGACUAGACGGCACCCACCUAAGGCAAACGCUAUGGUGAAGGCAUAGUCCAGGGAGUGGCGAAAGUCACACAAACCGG

Variants of: B1
Assay: reverse-splicing fitness (ratio to wild type); higher = more active; in vitro selection; Mg2+ level not given
Quick rule: reverse-splicing fitness of at least 0.006 means Condition met, below that means Condition not met.

* C82G A111U A120U A145G C169A | Condition not met
* C82U A111U A120G A145G C150U C169A U176C | Condition met
* A111U A145C C169G U176A | Condition met
* C82G A111C A120C A145C C150A C169U U176A | Condition met
* C82G A120G A145U U176C | Condition met

Ask | Does reverse-splicing fitness meet or surpass 0.006 for C82G A111C A120C A145U C150U C169U ?
Reply | Condition met

Ask | Request: A120G A145U C150U U176A
Reply | Condition met
